# systemTested: HLA-A*0201 (human)
# experimentDescription: competition with 125I-labelled standard peptide for purified HLA, gel filtration
We begin with a simple list: items and their reported binding affinity ratio (IC50 of standard peptide / IC50 of test peptide).
measure: binding affinity ratio (IC50 of standard peptide / IC50 of test peptide)

>>> recordedmeasurement("IVGLLGFAA (modifications not checked) [HBV POL 625 peptide …]")
0.0009
>>> recordedmeasurement("CLGWLWGMDI (modifications not checked) [HBV NUC 23 peptide …]")
0.0093
>>> recordedmeasurement("ILLLCLIFLLV (modifications not checked) [HBV ENV 249 peptide …]")
0.0056
>>> recordedmeasurement("ILLLCLIFL (modifications not checked) [HBV ENV 249 peptide … (9-mer, as printed)]")
0.0015
>>> recordedmeasurement("AICSVVRRA (modifications not checked) [HBV POL 521 peptide …]")
0.0001
>>> recordedmeasurement("CLIFLLVL (modifications not checked) [HBV ENV 253 peptide CLIFLLVL]")
0.0002
>>> recordedmeasurement("CLAFSYMDDV (modifications not checked) [HBV POL 533 peptide …]")
0.0008
>>> recordedmeasurement("CIPIPSSWA (modifications not checked) [HBV ENV 312 peptide …]")
0.001
